- Assayed System: CaSho1
- Assay Name: SPOT peptide array binding signal intensity (averaged, normalized) (arbitrary units (background-subtracted, floor 0; scale differs between SH3 domains)); higher = stronger binding of the SH3 domain to the peptide
Measured Endpoint: SPOT peptide array binding signal intensity

> print(dat)
            binder  recorded.measurement
1  NHSRSLFSLPGNQQS                   838
2  SSTPTTPERPKRKSG                   9.5
3  DHPKGPPPPPPPDEK                   7.5
4  LKVTPGRRAPTISKI                  15.5

**Query** Name the recorded SPOT peptide array binding signal intensity of the binder listed here: `AERNYAPRLPRRETS`
**Result** 22.5

**Query** Name the recorded SPOT peptide array binding signal intensity of the binder listed here: `LTRRFPFLFPFDTRM`
**Result** 892

**Query** Name the recorded SPOT peptide array binding signal intensity of the binder listed here: `APERAVPILPPRNNV`
**Result** 4
